- Target or system: Recombinant human microsomal MAO-A (Homo sapiens, UniProt P21397)
- Construct: purchased Sigma Aldrich; host or cells: baculovirus infected insect cells (BTI-TN-5B1-4)
- Sequence (P21397 whole entry): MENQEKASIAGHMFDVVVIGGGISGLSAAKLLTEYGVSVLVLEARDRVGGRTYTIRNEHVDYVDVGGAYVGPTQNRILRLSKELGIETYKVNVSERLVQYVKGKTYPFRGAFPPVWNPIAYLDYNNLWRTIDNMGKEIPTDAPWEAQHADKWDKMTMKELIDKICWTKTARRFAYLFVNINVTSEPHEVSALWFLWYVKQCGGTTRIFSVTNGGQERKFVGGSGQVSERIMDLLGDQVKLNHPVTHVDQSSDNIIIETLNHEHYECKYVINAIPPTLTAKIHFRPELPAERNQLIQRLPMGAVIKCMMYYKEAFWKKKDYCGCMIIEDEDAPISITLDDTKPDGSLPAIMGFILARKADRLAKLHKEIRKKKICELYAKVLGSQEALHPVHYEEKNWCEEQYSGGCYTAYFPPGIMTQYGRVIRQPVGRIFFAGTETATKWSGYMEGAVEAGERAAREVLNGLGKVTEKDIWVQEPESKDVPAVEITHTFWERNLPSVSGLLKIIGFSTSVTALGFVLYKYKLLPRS
- Test description: MAO-A activity assay (fluorimetric, Amplex Red, p-tyramine)
- Type: biochemical
- Test settings: MAO-A residual activity; active if lower than 60%
The label depends only on RA: yes if it is at least 80%, no if it is smaller.

• COc1cc(NC(=O)CCl)cc(OC)c1 [Compound 51, COc1cc(NC(=O)CCl)cc(OC)c1] = no
• CN1C(=O)C=CC1=O [Compound 38, CN1C(=O)C=CC1=O] = no
• O=S(=O)(/C=C/c1ccccc1)c1ccccc1 [Compound 35, O=S(=O)(/C=C/c1ccccc1)c1ccccc1] = yes

Attention now turns to another entry.
Task item: RA >= 80% for C=CC(=O)Nc1ccccc1 [Compound 30, C=CC(=O)Nc1ccccc1] ?
Reply: yes
